// reported ratio of 11 nM antibody binding signal (RLU) to isotype control per item
Target: full length human MSR1 with a C-terminal Myc tag on HEK293.Myc.hMSR1 cells (human) (UniProt P21757)
Sequence (P21757 whole entry): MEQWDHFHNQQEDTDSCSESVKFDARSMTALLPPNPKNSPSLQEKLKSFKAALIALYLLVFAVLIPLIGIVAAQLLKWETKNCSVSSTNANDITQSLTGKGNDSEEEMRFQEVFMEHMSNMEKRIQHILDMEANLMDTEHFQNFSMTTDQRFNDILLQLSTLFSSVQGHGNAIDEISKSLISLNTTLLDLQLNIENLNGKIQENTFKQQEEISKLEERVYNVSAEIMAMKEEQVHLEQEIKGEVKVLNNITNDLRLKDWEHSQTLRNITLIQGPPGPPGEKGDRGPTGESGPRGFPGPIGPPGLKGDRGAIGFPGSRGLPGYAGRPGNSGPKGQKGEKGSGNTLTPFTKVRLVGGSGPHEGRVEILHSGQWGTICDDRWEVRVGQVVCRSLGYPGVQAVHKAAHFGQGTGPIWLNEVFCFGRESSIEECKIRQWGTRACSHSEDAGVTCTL
Assay: ECL cell binding, HEK293.Myc.hMSR1 cells
Lab note: jot down the number only; don't add units.

Worked examples, 2 binders total:
[
  {
    "BINDER": "H1H21227N-N297D (antibody, human IgG1, V domains shown) VH: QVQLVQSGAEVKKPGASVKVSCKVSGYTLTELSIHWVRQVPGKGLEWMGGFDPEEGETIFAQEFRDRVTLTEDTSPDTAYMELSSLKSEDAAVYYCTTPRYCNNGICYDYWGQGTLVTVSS VL: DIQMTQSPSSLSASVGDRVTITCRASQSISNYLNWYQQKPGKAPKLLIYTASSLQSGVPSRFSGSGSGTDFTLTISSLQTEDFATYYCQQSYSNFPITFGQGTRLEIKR",
    "MEASUREMENT": 34
  },
  {
    "BINDER": "H1H27729P-N297Q (antibody, human IgG1, V domains shown) VH: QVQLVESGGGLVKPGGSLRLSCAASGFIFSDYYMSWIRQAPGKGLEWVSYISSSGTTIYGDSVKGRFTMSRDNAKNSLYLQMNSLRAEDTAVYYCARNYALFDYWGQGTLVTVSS VL: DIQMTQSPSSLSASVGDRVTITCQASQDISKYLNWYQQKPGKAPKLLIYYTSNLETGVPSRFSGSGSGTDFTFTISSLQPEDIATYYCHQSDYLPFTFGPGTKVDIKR",
    "MEASUREMENT": 17
  }
]

# input for lookup
Specify reported ratio of 11 nM antibody binding signal (RLU) to isotype control for the binder shown: H1H27747P-N297Q (antibody, human IgG1, V domains shown) VH: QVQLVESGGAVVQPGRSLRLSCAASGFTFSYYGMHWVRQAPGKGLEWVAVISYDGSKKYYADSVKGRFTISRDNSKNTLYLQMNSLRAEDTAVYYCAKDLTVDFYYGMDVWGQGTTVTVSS VL: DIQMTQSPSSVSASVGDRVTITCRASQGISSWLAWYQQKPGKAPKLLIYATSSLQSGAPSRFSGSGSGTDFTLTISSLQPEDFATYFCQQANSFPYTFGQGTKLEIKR
26
